ASSAYED_SYSTEM: T1, PSMA Fab (006 PSMA Fab) (biotinylated (site not stated))
T1 construct: In the clonal phage ELISA the biotinylated PSMA Fab was captured on neutravidin coated plates; also called Anti-PSMA Fab
ASSAY_EXPLANATION: clonal phage ELISA on biotinylated PSMA Fab captured on neutravidin, anti-M13 HRP detection, no PSMA
Where no end group is shown, it is not given here.
QUANTITY_MEASURED: Phage binding ELISA signal, Anti-PSMA Fab

| BINDER | NUMBER |
| --- | --- |
| GHPICVPSWMCEGF [Phage-3373] | 1.81 |
| HTPICVPVWMCAGF (cysteine pairing not given here; also: fused to pIII of bacteriophage) [Phage-3369] | 1.82 |
| EYIRCVPSWMCLDL [Phage-3376] | 1.81 |
| IAVMCKPEWMCVGF [Phage-3368] | 1.82 |
| ESNFCVPAWMCTGF (cysteine pairing not given here; also: fused to pIII of bacteriophage) [Phage-3364] | 1.82 |
| PHAICKPAWMCVGL [Phage-3371] | 1.81 |
| IDKMCVPSWMCWGF [Phage-3374] | 1.81 |
